# system: APC11/APC2 (Homo sapiens, UniProt Q9NYG5+Q9UJX6)
# Sequence (Q9NYG5 whole entry): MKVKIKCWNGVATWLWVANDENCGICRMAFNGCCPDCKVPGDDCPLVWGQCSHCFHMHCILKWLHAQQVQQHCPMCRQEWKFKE
# Sequence (Q9UJX6 whole entry): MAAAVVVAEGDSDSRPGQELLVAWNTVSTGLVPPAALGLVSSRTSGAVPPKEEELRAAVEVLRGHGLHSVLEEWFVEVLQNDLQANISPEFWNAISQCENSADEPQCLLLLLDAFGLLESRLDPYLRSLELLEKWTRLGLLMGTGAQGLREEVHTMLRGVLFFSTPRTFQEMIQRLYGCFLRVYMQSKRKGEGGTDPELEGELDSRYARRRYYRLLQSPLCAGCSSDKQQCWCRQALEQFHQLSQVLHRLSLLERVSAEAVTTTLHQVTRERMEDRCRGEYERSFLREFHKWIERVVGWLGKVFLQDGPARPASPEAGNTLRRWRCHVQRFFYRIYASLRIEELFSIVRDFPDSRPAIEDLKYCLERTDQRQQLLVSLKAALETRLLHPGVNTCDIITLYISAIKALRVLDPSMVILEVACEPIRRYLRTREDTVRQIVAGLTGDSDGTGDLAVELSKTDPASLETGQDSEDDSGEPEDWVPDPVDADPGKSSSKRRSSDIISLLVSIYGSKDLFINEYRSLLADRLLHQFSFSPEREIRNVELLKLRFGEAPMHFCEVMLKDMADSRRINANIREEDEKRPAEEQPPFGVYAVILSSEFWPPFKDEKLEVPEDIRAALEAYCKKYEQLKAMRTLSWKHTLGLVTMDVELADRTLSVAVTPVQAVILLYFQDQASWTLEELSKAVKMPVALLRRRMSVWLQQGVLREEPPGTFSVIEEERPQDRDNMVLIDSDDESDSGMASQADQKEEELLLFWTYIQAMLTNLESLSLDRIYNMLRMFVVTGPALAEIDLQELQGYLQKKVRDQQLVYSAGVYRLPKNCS
# protocol notes: APC-11/APC-2 ligase assay (APC auto ubiquitination)
# reported conditions: APC assay
IC50 values, listed per item

Here are 5 compounds together with their reported answers.
O=S(=O)(Nc1cccc2ccccc12)c1c(Cl)cc(Nc2cccc3ccccc23)c2nonc12; 1 to 20 µM
Cc1ccc(Sc2ccc([N+](=O)[O-])c3nonc23)cc1; 1 to 20 µM
COc1ccccc1NS(=O)(=O)c1ccc(Cl)c2nonc12; ≥ 20 µM
Cc1cc(C)c(NS(=O)(=O)c2ccc(Cl)c3nonc23)c(C)c1; ≥ 20 µM
O=S(=O)(Nc1cccc2nsnc12)c1ccc(Oc2ccccc2)cc1; 1 to 20 µM

Alright, here's another compound for you.
### Prompt Requested read-out: IC50. Entry: O=[N+]([O-])c1ccc(-c2cccc(C(F)(F)F)c2)c2nonc12
### Response 1 to 20 µM
